system: MDA-MB-435 melanoma; assay: NCI-60 one-dose screen, 48 h; settings: 10 µM unless noted
The panel holds about 83,000 compounds, 20% with a hit somewhere; the sample as a whole holds those more often. Activity calls are given as the source filed them. Rule for the calls: active = growth percent below 10; inactive = the rest.
Possible outcomes: active, inactive

| COMPOUND | TARGET | CLASSIFICATION |
| --- | --- | --- |
| CCCCCCC/C(=N\N=C(N)N)c1ccc(O)cc1 | MDA-MB-435 melanoma | inactive |
| O=C(CCc1nnc2sc(-c3ccc(Cl)cc3Cl)nn12)c1nc2ccccc2[nH]1 | MDA-MB-435 melanoma | active |
| N#Cc1c(N2CCOCC2)nc2sc3cc(Cl)ccc3n2c1=N | MDA-MB-435 melanoma | inactive |
| CN(C)c1cccc2c(S(=O)(=O)N[C@H]3CC[C@H]4[C@@H]5CCc6cc(O)ccc6[C@H]5CC[C@]34C)cccc12 | MDA-MB-435 melanoma | active |
| O=c1ccn(C2CCCO2)c(=O)[nH]1 (configuration not stated) | MDA-MB-435 melanoma | inactive |
| O=C1/C(=C/c2ccc3cccc(Cl)c3n2)SC(=S)N1CCc1ccc(O)cc1 | MDA-MB-435 melanoma | inactive |
| C[C@@H]1CC[C@H]2[C@@H](C)C(O)O[C@@H]3O[C@]4(C)CC[C@@H]1[C@]32OO4 (some centres not stated) | MDA-MB-435 melanoma | active |
| Cc1ccc(NC(=O)Nc2ccc(-c3cccnc3)cc2N2CCC(CO)CC2)cc1 | MDA-MB-435 melanoma | active |
| C[C@]12CC[C@@H]3c4ccc(O)c([N+](=O)[O-])c4CC[C@H]3[C@@H]1CC[C@@H]2NS(=O)(=O)c1ccc(C(F)(F)F)cc1 | MDA-MB-435 melanoma | inactive |
| NC(N)=NC(N)=NCCCc1ccccc1 | MDA-MB-435 melanoma | inactive |
| CCN1CCN(c2cc(-c3cn[nH]c3-c3cc(C)cc(OC)c3)nc(-c3cccnc3)n2)CC1 | MDA-MB-435 melanoma | inactive |
| CCCn1cnc2c1c(=O)n(CCCCC(C)=O)c(=O)n2C | MDA-MB-435 melanoma | inactive |
| O=C1/C(=C/c2ccc([N+](=O)[O-])o2)Oc2ccc(Cl)cc21 | MDA-MB-435 melanoma | active |
| O=C1CN(CO)C(=O)CN1CO | MDA-MB-435 melanoma | inactive |
| Cc1cc(O)c2c(c1)C[C@H]1[C@@H]3CC[C@H]4CC(=O)CC[C@]4(C)[C@H]3CC(=O)[C@]21C | MDA-MB-435 melanoma | inactive |
| CCCCSc1cc(C)nc(N)n1 | MDA-MB-435 melanoma | inactive |
| Nc1c2ccccc2nc2ccccc12 (tested in a mixture with another compound) | MDA-MB-435 melanoma | inactive |
| CCCCCCCCCCCCCCCCCc1nccn1CCO | MDA-MB-435 melanoma | inactive |
| O=C(c1ccccc1)c1ccccc1Cl | MDA-MB-435 melanoma | inactive |
| Cc1[nH]n(C(N)=S)c(=O)c1N=Nc1ccc(F)c(Cl)c1 | MDA-MB-435 melanoma | inactive |
| COc1cccc(C2C(C#N)=C(N)Oc3cc(OC)ccc32)c1 (configuration not stated) | MDA-MB-435 melanoma | active |
| C=CCCCCCCCCC(=O)[O][Sn]([CH2]CCC)([CH2]CCC)[CH2]CCC | MDA-MB-435 melanoma | active |

====

system: CCRF-CEM leukemia; test: NCI-60 one-dose screen, 48 h (100 = growth as untreated, 0 = no growth, -100 = all killed); details: 10 µM unless noted
The panel holds about 83,000 compounds, 20% with a hit somewhere; the sample as a whole holds those more often. Active and inactive are the calls of the source. How the source made its calls: active means growth percent below 10; inactive means the rest.
# maps each entry to its growth
VALUE TYPE: growth

| COMPOUND | VALUE OBSERVED |
| --- | --- |
| O=C1NC(=O)/C(=C\c2ccccc2)C2=C1CCCC2 | 35.8% (inactive) |
| Oc1[nH]c2ccc(Cl)cc2c1/C=c1/ccc2c(c1)N=C(c1ccc(C(F)(F)F)cc1)N=2 | 15.5% (inactive) |
| c1cnc2ccc3ncccc3c2c1 | 98.9% (inactive) |
| CCCCC(C#N)C(N)=O (stereo not given) | 95.8% (inactive) |
| COc1ccc(-c2noc(N)c2-c2cc(OC)c3c(c2)OCO3)cc1 | 5.26% (active) |
| CN(CC(=O)N(Cc1ccc(C2CCCCC2)cc1)c1ccc(C(=O)O)cc1)S(=O)(=O)c1c(F)c(F)c(F)c(F)c1F | -28.2% (active) |
| Fc1ccc(-c2nnc(-c3c(-c4ccc(F)cc4)nc4ncccn34)o2)cc1 | 96.7% (inactive) |
| CCCc1cc(=O)n2c(C(=O)Nc3ccccc3OC)c(C(=O)Nc3ccc(F)cc3)sc2n1 | 58.4% [30 µM] (inactive) |
| O=C(CSc1nnc(Nc2ccccc2)s1)NCCc1ccc(F)cc1 | 117% (inactive) |
| N#Cc1cnc2cc(OC[C@H](O)CO)c(NC(=O)CC3CSSC3)cc2c1Nc1ccc(OCc2cccc(F)c2)c(Cl)c1 | -81.8% (active) |

====

# maps each entry to its growth
test system: OVCAR-8 ovarian; assay: NCI-60 one-dose screen, 48 h (100 = growth as untreated, 0 = no growth, -100 = all killed); settings: 10 µM unless noted
Compounds without any hit were thinned out: in the full panel of roughly 83,000, 20% have a hit.

| COMPOUND | MEASUREMENT UNITS | growth |
| --- | --- | --- |
| CC(CCC(=O)O)(NC(=O)c1ccc([N+](=O)[O-])cc1)C(=O)O (configuration not stated) | % | 102 |
| O=C1CN(CO)C(=O)CN1CO | % | 99.7 |
| O=C(Nc1cccc(-n2cc(-c3ccncc3)c(-c3ccc(O)c(Cl)c3)n2)c1)Nc1ccc(Cl)c(C(F)(F)F)c1 | % | -44.7 |
| C[n+]1c2ccccc2c(NC2CCNCC2)c2[nH]c3ccccc3c21 | % | 15.2 |
| COc1cccc(CCC2C(=O)CCCC2=O)c1 | % | 116 |
| CCC(O)C(C)(C)C (configuration not stated) | % | 103 |
| CC(C)(C)c1cc(O)c(O)c(C(C)(C)C)c1 | % | 39.8 |
| COc1ccc(-c2nnc(COc3ccc(NC(=O)Nc4cc(C(F)(F)F)cc(C(F)(F)F)c4)cc3F)o2)cc1 | % | 11.4 |
| C/C(=C\CCc1ccsc1)CC/C=C(\C)CCCN1CCC(CO)CC1 | % | 62.8 |
| CCC[C@H](N[C@@H](C)C(=O)N1[C@H](C(=O)O)C[C@@H]2CCCC[C@@H]21)C(=O)OCC | % | 102 |
| COc1ccc(C2CC(c3ccc(OC)c(OC)c3)=NN2C(=O)c2cc(OC)c(OC)c(OC)c2)cc1 (configuration not stated) | % | 34.2 |
| CCOc1cc(-c2ccc[nH]2)[nH]c1/C=C1\N=C(C)C(C(=O)OC)=C1C | % | -45.8 |
| N=C(N)/N=C(\CCc1nc2ccccc2[nH]1)c1nc2ccccc2[nH]1 | % | 105 |
| COc1ccc2c(c1)[nH]c(=O)c1c3cc(OC)c(OC)cc3cn21 | % | 16 |
| COc1ccc(/C=C(\C#N)c2ccccc2)cc1 | % | 92 |
| O=c1ccn(C2CCCO2)c(=O)[nH]1 (configuration not stated) | % | 102 |
| COc1ccc(C(=O)Nc2nc(-c3ccc(Cl)cc3)cs2)cc1 | % | 103 |
| O=C(CCc1nnc(Cn2cncn2)o1)c1nc2ccccc2[nH]1 | % | 107 |
| CN(C)c1ccc2c(c1)/C(=N/O)c1ccccc1-2 | % | 97.6 |
| O=C(/C=C/c1ccccc1Cl)c1ccc(O)cc1 | % | 96.8 |
| ClC1=C(Cl)C(=C2C(Cl)=C(Cl)C(Cl)=C2Cl)C(Cl)=C1Cl | % | 97.7 |
| COc1cc(C2NC(c3ccc(Cl)cc3)C(C)C(=NC(=O)c3cnccn3)C2C)cc(OC)c1OC (configuration not stated) | % | 103 |

====

# maps each entry to its growth
test system: SF-268 CNS; test: NCI-60 one-dose screen, 48 h (100 = growth as untreated, 0 = no growth, -100 = all killed); conditions: 10 µM unless noted
The panel holds about 83,000 compounds, 20% with a hit somewhere; the sample as a whole holds those more often. Active and inactive are the calls of the source. Rule for the calls: active = growth percent below 10; inactive = the rest.
VALUE TYPE: growth

| STRUCTURE NOTATION | VALUE TYPE | VALUE OBSERVED |
| --- | --- | --- |
| CCOC(=O)/C=C(/C)Sc1cc(O)c2ccccc2c1O | growth | 32.8% (inactive) |
| O=[P@@]1(c2ccccc2)O[C@H](COCc2ccccc2)[C@@H](OCc2ccccc2)[C@H](OCc2ccccc2)[C@H]1NCc1ccccc1 | growth | 32.2% (inactive) |
| COc1ccc(C(=O)COc2cccc(/C=C3\Oc4ccc5ccccc5c4C3=O)c2)cc1 | growth | 83.7% (inactive) |
| COc1ccc(-n2nnc(C(=O)O)c2-c2cc(OC)c(OC)c(OC)c2)cc1 | growth | 115% (inactive) |
| O=C(CCc1nnc(Cn2ccnc2)o1)c1nc2ccccc2[nH]1 | growth | 111% (inactive) |
| NC(N)=N/N=C(/c1ccccc1)c1ccc(Cl)cc1 | growth | 62.2% (inactive) |
| CCCCCCCCCCCCCCCCN=C(CC(=O)O)C(=O)O | growth | 103% (inactive) |
| CN1C(=O)/C(=C/c2nc(-c3cccc(F)c3)n3ccccc23)c2ccccc21 | growth | 92% (inactive) |
| COc1ccccc1[C@H]1c2[nH]c3ccccc3c2C[C@H]2C(=O)N(CCCCCCC(=O)NO)CC(=O)N12 | growth | 94.3% (inactive) |
| S=C(Nc1ccc(C2=NCCN2)cc1)Nc1ccc(C2=NCCN2)cc1 | growth | 120% (inactive) |

// data source = PubChem BioAssay (NCI)
